TGT: Angiotensin-converting enzyme (Rattus norvegicus) (UniProt P47820)
Sequence (P47820 whole entry): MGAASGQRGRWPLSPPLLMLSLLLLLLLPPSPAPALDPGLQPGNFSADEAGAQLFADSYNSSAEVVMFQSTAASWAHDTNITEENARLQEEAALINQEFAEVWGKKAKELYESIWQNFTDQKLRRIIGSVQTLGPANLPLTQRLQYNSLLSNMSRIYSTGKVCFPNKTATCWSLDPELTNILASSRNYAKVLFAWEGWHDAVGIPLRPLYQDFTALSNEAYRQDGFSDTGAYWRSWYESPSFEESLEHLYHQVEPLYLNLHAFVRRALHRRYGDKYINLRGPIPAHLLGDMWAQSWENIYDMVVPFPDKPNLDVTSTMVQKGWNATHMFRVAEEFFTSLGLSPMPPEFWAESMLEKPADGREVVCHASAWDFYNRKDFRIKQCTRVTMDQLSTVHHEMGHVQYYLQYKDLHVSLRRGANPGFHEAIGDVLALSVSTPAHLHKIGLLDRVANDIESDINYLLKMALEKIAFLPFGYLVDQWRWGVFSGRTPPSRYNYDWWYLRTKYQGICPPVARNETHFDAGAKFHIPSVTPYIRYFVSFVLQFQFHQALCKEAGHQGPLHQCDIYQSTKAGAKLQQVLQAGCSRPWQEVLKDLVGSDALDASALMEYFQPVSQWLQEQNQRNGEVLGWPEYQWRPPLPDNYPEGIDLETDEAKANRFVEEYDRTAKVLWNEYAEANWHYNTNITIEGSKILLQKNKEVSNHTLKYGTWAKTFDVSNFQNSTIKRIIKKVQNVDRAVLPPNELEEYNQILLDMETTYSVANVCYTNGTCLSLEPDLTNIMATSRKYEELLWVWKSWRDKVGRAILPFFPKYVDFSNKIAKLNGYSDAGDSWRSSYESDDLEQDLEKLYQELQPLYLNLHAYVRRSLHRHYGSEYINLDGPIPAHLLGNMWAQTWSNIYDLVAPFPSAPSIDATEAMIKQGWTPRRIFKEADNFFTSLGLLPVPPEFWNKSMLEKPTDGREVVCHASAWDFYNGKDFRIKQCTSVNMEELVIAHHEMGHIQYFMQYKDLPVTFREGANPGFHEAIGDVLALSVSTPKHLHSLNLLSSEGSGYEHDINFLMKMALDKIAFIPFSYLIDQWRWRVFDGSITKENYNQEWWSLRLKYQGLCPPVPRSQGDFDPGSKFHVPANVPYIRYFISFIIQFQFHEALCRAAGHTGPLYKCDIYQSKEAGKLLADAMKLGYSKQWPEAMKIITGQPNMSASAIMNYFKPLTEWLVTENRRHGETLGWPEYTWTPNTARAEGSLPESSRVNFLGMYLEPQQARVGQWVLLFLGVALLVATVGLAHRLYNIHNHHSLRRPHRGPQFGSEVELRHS
ASSAY_SUMMARY: Evaluation of plasma inhibition of Angiotensin I converting enzyme activity in conscious rat 2 hours after intravenous administration at a dose of 10 mg/kg
Assay type: functional, organism-based
Set-up: dose 10 mg/kg
MEASURED_PARAMETER: inhibition (%)
Numeric only. Scale: %

Solved entries (count: 4):
CC(C)[C@H](S)C(=O)NC1(C(=O)N[C@@H](Cc2ccc(O)cc2)C(=O)O)CCOCC1; 27
CC(C)[C@H](S)C(=O)NC(C)(C)C(=O)N[C@@H](Cc1ccc(O)cc1)C(=O)O; 81
CC(C)[C@H](S)C(=O)NC1(C(=O)N[C@@H](CCc2ccccc2)C(=O)O)CCCC1; 69
CC(C)[C@H](S)C(=O)NC1(C(=O)N[C@@H](Cc2ccccn2)C(=O)O)CCCC1; 52

## Input Report the value of inhibition obtained on Angiotensin-converting enzyme (Rattus norvegicus) (UniProt P47820) for O=C(O)[C@H](Cc1ccc(O)cc1)NC(=O)C1(NC(=O)[C@@H](S)Cc2ccccc2)CCCC1 .
## Output 75

----------
TGT: Angiotensin-converting enzyme (Oryctolagus cuniculus, UniProt P12822)
Sequence (P12822 whole entry): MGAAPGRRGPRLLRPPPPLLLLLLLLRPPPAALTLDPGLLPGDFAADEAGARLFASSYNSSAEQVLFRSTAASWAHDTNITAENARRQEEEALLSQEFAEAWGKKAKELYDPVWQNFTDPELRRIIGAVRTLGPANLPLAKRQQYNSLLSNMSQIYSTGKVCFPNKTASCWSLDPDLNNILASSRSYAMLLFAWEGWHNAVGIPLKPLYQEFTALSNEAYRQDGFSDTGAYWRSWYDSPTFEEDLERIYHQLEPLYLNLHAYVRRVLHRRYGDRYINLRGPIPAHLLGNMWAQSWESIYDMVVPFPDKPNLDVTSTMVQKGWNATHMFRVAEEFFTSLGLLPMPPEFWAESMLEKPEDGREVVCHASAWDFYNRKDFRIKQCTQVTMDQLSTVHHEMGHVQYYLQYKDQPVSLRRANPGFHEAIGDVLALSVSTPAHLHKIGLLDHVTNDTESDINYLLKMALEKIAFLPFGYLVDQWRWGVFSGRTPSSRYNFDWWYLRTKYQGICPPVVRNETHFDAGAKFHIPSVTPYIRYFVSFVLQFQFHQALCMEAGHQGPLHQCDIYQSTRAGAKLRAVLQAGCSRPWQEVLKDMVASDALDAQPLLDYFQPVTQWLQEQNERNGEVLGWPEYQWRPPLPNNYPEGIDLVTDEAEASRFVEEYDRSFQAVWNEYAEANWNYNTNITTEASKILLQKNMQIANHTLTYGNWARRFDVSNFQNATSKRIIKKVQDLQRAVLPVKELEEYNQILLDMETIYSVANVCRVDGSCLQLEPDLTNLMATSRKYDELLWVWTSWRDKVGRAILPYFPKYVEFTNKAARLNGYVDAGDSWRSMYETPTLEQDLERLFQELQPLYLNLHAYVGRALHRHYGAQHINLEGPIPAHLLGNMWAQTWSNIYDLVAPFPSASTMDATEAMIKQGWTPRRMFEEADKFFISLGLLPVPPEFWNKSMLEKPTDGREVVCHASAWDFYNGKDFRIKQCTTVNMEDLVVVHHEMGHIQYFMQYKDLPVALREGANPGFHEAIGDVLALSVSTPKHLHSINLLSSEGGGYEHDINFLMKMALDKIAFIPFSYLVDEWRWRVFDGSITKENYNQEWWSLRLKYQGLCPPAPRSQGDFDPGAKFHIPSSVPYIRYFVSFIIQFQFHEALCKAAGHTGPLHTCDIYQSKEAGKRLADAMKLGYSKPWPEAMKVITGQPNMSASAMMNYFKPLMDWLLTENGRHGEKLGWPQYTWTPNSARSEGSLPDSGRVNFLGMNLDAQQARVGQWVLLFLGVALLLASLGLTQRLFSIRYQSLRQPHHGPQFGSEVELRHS
Lab note: compare IC50 with 20 nM, writing YES if less and NO if equal or more.

CC(C)[C@H](S)C(=O)N[C@@H](Cc1ccc(-c2ccccc2)cc1)C(=O)N[C@@H](Cc1ccc(O)cc1)C(=O)O; NO
COc1ccc(C[C@H](NC(=O)C2(NC(=O)[C@@H](S)C(C)C)CCCC2)C(=O)O)cc1; YES
CC(C)[C@H](S)C(=O)NC1(C(=O)N[C@@H](Cc2ccc(-c3ccccc3)cc2)C(=O)O)CCCC1; NO
CC(C)[C@H](S)C(=O)NC1(C(=O)N[C@@H](Cc2c[nH]c3ccc(O)cc23)C(=O)O)CCCC1; YES
O=C(O)[C@H](Cc1ccc(O)cc1)NC(=O)C1(NC(=O)[C@@H](S)Cc2ccccc2)CCCC1; NO

## Input Identify whether the compound CC(C)[C@H](S)C(=O)NC1(C(=O)N[C@@H](Cc2ccc(O)cc2)C(=O)O)CCCC1 records IC50 below 20 nM.
## Output YES

## Input Identify whether the compound CC(C)[C@H](S)C(=O)NC1(C(=O)N[C@@H](Cc2ccsc2)C(=O)O)CCCC1 records IC50 below 20 nM.
## Output YES

## Input Identify whether the compound CC(C)[C@H](S)C(=O)NC1(C(=O)N[C@@H](Cc2ccc(O)cc2)C(=O)O)CCOCC1 records IC50 below 20 nM.
## Output YES
